The measured values listed here are drawn from patent US9296787B2.

Tested on: mouse neuroblastoma cell line (N1E-115)
Format: cell-based
Details: N1E-115, peptide 100 μM, WST-8 absorbance after 24 hours
No end group written: not given here.

Construct Sequence: GPHLGMNQRRRP [Sample 21, GPHLGMNQRRRP]
A450(-A620) After 24 hers: 0.5810
//
Construct Sequence: EFEYFHPATFRLKKRTLRKNDRKKR [Sample 42]
A450(-A620) After 24 hers: 0.4114
//
Construct Sequence: EFEYFHPATFRL [Sample 20, EFEYFHPATFRL]
A450(-A620) After 24 hers: 0.6481

====

Tested on: mouse neuroblastoma cell line (N1E-115)
Type: cell-based
Settings: N1E-115, peptide 100 μM, WST-8 absorbance after 24 hours
No end group written: not given here.

Construct Sequence: GPHHYWYHLRLP [Sample 16, GPHHYWYHLRLP]
A450(-A620) After 24 hers: 0.6048
//
Construct Sequence: GPHLGMNQRRRPKKRTLRKNDRKKR [Sample 43]
A450(-A620) After 24 hers: 0.4110
//
Construct Sequence: SVSVGMKPSPRP [Sample 13, SVSVGMKPSPRP]
A450(-A620) After 24 hers: 0.6422
//
Construct Sequence: GPHHYWYHLRLPKKRTLRKNDRKKR [Sample 38]
A450(-A620) After 24 hers: 0.3592
//
Construct Sequence: NMTTYPMHNNTV [Sample 18, NMTTYPMHNNTV]
A450(-A620) After 24 hers: 0.5999
//
Construct Sequence: QSPVNHHYHYHI [Sample 17, QSPVNHHYHYHI]
A450(-A620) After 24 hers: 0.5818

====

Tested on: mouse neuroblastoma cell line (N1E-115)
Type: cell-based
Conditions: N1E-115, peptide 50 μM, WST-8 absorbance after 24 hours
No end group written: not given here.

Construct Sequence: SVSVGMKPSPRP [Sample 13, SVSVGMKPSPRP]
System: mouse neuroblastoma cell line (N1E-115)
A450(-A620) After 24 hers: 0.5681
--
Construct Sequence: EFEYFHPATFRL [Sample 20, EFEYFHPATFRL]
System: mouse neuroblastoma cell line (N1E-115)
A450(-A620) After 24 hers: 0.5772
--
Construct Sequence: EFEYFHPATFRLKKRTLRKNDRKKR [Sample 42]
System: mouse neuroblastoma cell line (N1E-115)
A450(-A620) After 24 hers: 0.5145
--
Construct Sequence: GPHLGMNQRRRPKKRTLRKNDRKKR [Sample 43]
System: mouse neuroblastoma cell line (N1E-115)
A450(-A620) After 24 hers: 0.4784
--
Construct Sequence: QSPVNHHYHYHI [Sample 17, QSPVNHHYHYHI]
System: mouse neuroblastoma cell line (N1E-115)
A450(-A620) After 24 hers: 0.6019
--
Construct Sequence: NMTTYPMHNNTV [Sample 18, NMTTYPMHNNTV]
System: mouse neuroblastoma cell line (N1E-115)
A450(-A620) After 24 hers: 0.6054
--
Construct Sequence: GPHHYWYHLRLPKKRTLRKNDRKKR [Sample 38]
System: mouse neuroblastoma cell line (N1E-115)
A450(-A620) After 24 hers: 0.4605
--
Construct Sequence: GPHHYWYHLRLP [Sample 16, GPHHYWYHLRLP]
System: mouse neuroblastoma cell line (N1E-115)
A450(-A620) After 24 hers: 0.6912
--
Construct Sequence: GPHLGMNQRRRP [Sample 21, GPHLGMNQRRRP]
System: mouse neuroblastoma cell line (N1E-115)
A450(-A620) After 24 hers: 0.5284
